Data credit: patent US20250019454A1

Target: T1, His-tagged human TNFR2 (Human TNFR2/CD120b/TNFRSF1B Protein, His Tag, Acrobiosystems Cat #: TN2-5227) (human, UniProt P20333 23-257)
T1 construct: Bought protein; also called hTNFR2-His; Recombinant human TNFR2 proteins with His-tag; not shown: His tag
T1 sequence: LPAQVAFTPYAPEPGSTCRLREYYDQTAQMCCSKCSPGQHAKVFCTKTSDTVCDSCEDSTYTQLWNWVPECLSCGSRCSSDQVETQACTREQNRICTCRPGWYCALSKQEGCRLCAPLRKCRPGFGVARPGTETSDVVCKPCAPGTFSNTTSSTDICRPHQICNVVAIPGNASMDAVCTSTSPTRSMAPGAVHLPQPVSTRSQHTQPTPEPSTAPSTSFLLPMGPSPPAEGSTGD
Assay: SPR Biacore 8K, antibody captured on Protein A chip, hTNFR2-His as analyte, 1:1 model
readout name: Kd (nM)
Report only the number, with the unit nM understood.

binder | reported measurement
BC-1C3-IgG1 (antibody, V domains shown, Human VH/VL joined to the human IgG1 subtype) VH: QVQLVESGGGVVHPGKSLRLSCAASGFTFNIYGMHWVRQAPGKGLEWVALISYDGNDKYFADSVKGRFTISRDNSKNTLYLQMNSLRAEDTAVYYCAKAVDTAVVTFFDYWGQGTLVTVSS VL: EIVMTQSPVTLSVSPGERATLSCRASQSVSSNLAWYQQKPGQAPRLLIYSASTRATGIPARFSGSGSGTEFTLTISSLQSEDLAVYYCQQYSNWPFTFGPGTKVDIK | 9.5
BC-1B6-IgG1 (antibody, V domains shown, Human VH/VL joined to the human IgG1 subtype) VH: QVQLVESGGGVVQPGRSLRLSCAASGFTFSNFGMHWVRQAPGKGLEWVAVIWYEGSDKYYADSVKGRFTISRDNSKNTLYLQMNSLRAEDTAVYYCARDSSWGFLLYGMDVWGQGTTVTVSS VL: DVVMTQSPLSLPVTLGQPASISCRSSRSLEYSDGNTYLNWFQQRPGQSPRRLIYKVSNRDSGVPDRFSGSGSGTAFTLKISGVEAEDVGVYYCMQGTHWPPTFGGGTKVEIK | 3.89

Next:
Bench note: what Kd did BC-1A8-IgG1 (antibody, V domains shown, Fully human VH/VL joined to the human IgG1 subtype, kappa light chain (RenMab mice)) VH: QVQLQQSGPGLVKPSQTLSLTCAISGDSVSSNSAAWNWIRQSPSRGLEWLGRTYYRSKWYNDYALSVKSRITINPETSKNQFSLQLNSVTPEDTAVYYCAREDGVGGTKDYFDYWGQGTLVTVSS VL: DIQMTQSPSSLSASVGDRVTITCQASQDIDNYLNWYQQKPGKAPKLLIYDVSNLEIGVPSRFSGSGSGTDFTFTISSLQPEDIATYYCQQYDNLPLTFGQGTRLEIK show?
1.36
